# protocolNotes: Drug uptake in rat astrocytes at 1 ug/mL assessed per mg of protein after 60 mins by HPLC-MS/MS analysis
# Type: ADME, cell-based
# testParameters: astrocyte, 1 h

{"recordSmiles": "CCCCCCCCCOC(=O)CN(C)C(=N)N", "unitsText": "nmol/mg", "Drug uptake": 1.44}

###

# protocolNotes: Drug uptake in rat primary cortical neuron supernatant at 10 ug/mL after 1 hr by HPLC-MS/MS analysis
# Assay type: ADME, cell-based
# testParameters: cerebral cortex neuron

{"recordSmiles": "CCCCCCCCCCCCCCCCCCOC(=O)CN(C)C(=N)N", "Drug uptake / nmol": 6.85}
{"recordSmiles": "CCCCCCCCOC(=O)CN(C)C(=N)N", "Drug uptake / nmol": 21.3}
{"recordSmiles": "CCOC(=O)CN(C)C(=N)N", "Drug uptake / nmol": 44.4}
{"recordSmiles": "CCCCCCCCCCCCOC(=O)CN(C)C(=N)N", "Drug uptake / nmol": 1.85}

###

# protocolNotes: Drug uptake in rat endothelial cells at 10 ug/mL after 60 mins by HPLC-MS/MS analysis relative to initial content
# Type: ADME, cell-based
# testParameters: endothelial cell, 1 h
Catalogue of Drug uptake values

{"recordSmiles": "CCCCCCCCCOC(=O)CN(C)C(=N)N", "Drug uptake, %": 4.21}
{"recordSmiles": "CCCCCCCCOC(=O)CN(C)C(=N)N", "Drug uptake, %": 0.18}
{"recordSmiles": "CCCCCCCCCCCCOC(=O)CN(C)C(=N)N", "Drug uptake, %": 15.4}
{"recordSmiles": "CCCCCCCCCCCCCCCCCCOC(=O)CN(C)C(=N)N", "Drug uptake, %": 2.03}

###

# protocolNotes: Drug uptake in rat primary cortical neuron lysate assessed per mg of protein at 1 ug/mL after 1 hr by HPLC-MS/MS analysis
# Type: ADME, cell-based
# testParameters: cerebral cortex neuron

{"recordSmiles": "CCCCCCCCCCCCCCCCCCOC(=O)CN(C)C(=N)N", "Drug uptake, nmol/mg": 12.5}
{"recordSmiles": "CCOC(=O)CN(C)C(=N)N", "Drug uptake, nmol/mg": 0.21}
{"recordSmiles": "CCCCCCCCOC(=O)CN(C)C(=N)N", "Drug uptake, nmol/mg": 5.88}
{"recordSmiles": "CCCCCCCCCCCCOC(=O)CN(C)C(=N)N", "Drug uptake, nmol/mg": 18.6}
